- Tested on: KM12 colon
- RUN DESCRIPTION: NCI tumour cell line growth inhibition, 48 h; in the data active = GI50 below about 0.43 µM; inactive = the rest
Valid outcomes are listed here; reply with one: active, inactive

Oc1cc(Cn2cnc3c(Cl)nc(Cl)nc32)ccc1C12CC3CC(CC(C3)C1)C2; inactive
CS(=O)(=O)OCCn1c2c(c3c(O)cccc31)C(=O)c1ccccc1-2; inactive
Cc1cnc(NC2CCOCC2)nc1-n1cnc(C(=O)N[C@H](CN)c2cc(F)cc(Cl)c2)c1; active
CCC(C)C1=NC(C(=O)N/C=C\c2c[nH]c3cc(Br)c(Br)cc23)(C(C)C)NC1=O (stereo not drawn); inactive
CN1C(=O)C23CC4(C56CC78SSC(CO)(C(=O)N7C5Nc5ccccc56)N(C)C8=O)c5ccccc5NC4N2C(=O)C1(CO)SS3 (stereo not drawn); active

Short answer needed: outcome of this test for COc1ccc2[nH]c(=O)c(/C=C/C(=O)c3ccccc3OC)cc2c1 ?
active

Short answer needed: outcome of this test for Nc1cc2ccccc2c(O)c1O ?
inactive

Short answer needed: outcome of this test for CC(C)=C[C@@H]1C[C@H](C)[C@H]2CC[C@H](C)c3c(O)c(OC4OCC(O)C(O)C4O)c(C)c1c32 (stereo partly drawn) ?
inactive

----------
- Tested on: MALME-3M melanoma
- RUN DESCRIPTION: NCI tumour cell line growth inhibition, 48 h
MEASURED METRIC: TGI

FC(F)(F)c1ccc(C2=N/S(c3ccccc3)=N\C(c3ccc(C(F)(F)F)cc3)=N/S(c3ccccc3)=N\2)cc1 (centres undefined); > 100 µM
CN(C)CCNC(=O)c1cccc(NC(=O)c2ccccc2)c1[N+](=O)[O-]; 27.3 µM
CC(=O)Nc1ccc(S(=O)(=O)/N=C2\C=CC(=O)c3ccccc32)cc1; 9.66 µM
Nc1nnnn1NC(=O)NCCCl; > 10 µM
O=C(O)c1ccccc1NS(=O)(=O)c1ccc([N+](=O)[O-])cc1; > 100 µM

TGI on MALME-3M melanoma for COc1ccc(CNC(=O)[C@H](Cc2ccc(O)cn2)NC(C)=O)cc1OC is > 100 µM

TGI on MALME-3M melanoma for NCC(O)CSP(=O)(O)O (centres undefined) is > 100 µM

TGI on MALME-3M melanoma for C/C(=C1/N=C(c2cc([N+](=O)[O-])ccc2Cl)N(c2ccc(Br)cc2)C1=O)c1cc2ccccc2oc1=O is > 100 µM

TGI on MALME-3M melanoma for CCCCCCCCCCCCCCCCCCNc1nc(=O)n(C2CC(O)C(COP(=O)(O)OCC(COP(=O)(O)OC3C(CO)OC(n4ccc(N)nc4=O)C3O)OCCCCCCCCCCCCCCCCCC)O2)cc1F (centres undefined) is > 100 µM

----------
- System: RPMI-8226 leukemia
- RUN DESCRIPTION: NCI tumour cell line growth inhibition, 48 h
Decision: TGI compared against 30 µM; not below it gives T, below it gives F.

Completed entries (count: 5):
C=CCN=C1N=C(C)C(C(=O)OCC)S1 (configuration not stated); T
C=C(C)[C@@H]1CC[C@]2(C)[C@H](CC[C@@H]3[C@@H]([C@@](C)(O)CCC=C(C)C)CC[C@]32C)[C@@]1(C)CCC(=O)N1CCN(C)CC1; F
Cn1c2c(c3ccccc31)CCN(CCCN1CCN(c3cccc(Cl)c3)CC1)C2=O; T
C/C(=C\C(=N\N=C(N)N)c1ccc(Cl)cc1)c1ccc(Cl)cc1; F
COc1cccc(C=O)c1[O-].COc1cccc(C=O)c1[O-].[Cu+2]; T

Confirm if TGI reported for the compound COC(=O)C1C(O)C(C)C(O)C(C)(O)/C=C/C=C(C)C(=O)Nc2c(C)c(OC(C)=O)c3c(c2O)C(=O)C(C)=C2OCOC(=C23)C(C)=CC(C)(O)C(O)C(C)C1OC(C)=O (configuration not stated) is 30 µM or above.
T

Confirm if TGI reported for the compound NC(=O)c1ccc(NCC2=CC(=O)C=CC2=O)cc1 is 30 µM or above.
T

Confirm if TGI reported for the compound CC1(C)OC(CCC#N)CN1C(=O)OCc1ccccc1 (configuration not stated) is 30 µM or above.
T

Confirm if TGI reported for the compound COc1ccc2c(c1)C(=O)c1c-2c(=O)n(CCCCCCC(=O)NO)c2ccccc12 is 30 µM or above.
T

Confirm if TGI reported for the compound CC(=O)O[C@H]1C(=O)[C@@]2(C)[C@H]([C@H](OC(=O)C3CCCCC3)[C@]3(O)C[C@H](OC(=O)[C@H](O)[C@@H](NC(=O)OC(C)(C)C)c4ccccc4)C(C)=C1C3(C)C)[C@]1(OC(C)=O)CO[C@@H]1C[C@@H]2O is 30 µM or above.
F

Confirm if TGI reported for the compound COc1nc2ncc([C@@H](O)[C@H](O)CO)nc2c(=O)n1C is 30 µM or above.
T

Confirm if TGI reported for the compound CCOC(=O)C#Cc1c(C(=O)OCC)nnn1Cc1ccc(C(F)(F)F)cc1 is 30 µM or above.
F
